Target: T1, Scl-70 (UniProt P11387 1-765)
T1 sequence: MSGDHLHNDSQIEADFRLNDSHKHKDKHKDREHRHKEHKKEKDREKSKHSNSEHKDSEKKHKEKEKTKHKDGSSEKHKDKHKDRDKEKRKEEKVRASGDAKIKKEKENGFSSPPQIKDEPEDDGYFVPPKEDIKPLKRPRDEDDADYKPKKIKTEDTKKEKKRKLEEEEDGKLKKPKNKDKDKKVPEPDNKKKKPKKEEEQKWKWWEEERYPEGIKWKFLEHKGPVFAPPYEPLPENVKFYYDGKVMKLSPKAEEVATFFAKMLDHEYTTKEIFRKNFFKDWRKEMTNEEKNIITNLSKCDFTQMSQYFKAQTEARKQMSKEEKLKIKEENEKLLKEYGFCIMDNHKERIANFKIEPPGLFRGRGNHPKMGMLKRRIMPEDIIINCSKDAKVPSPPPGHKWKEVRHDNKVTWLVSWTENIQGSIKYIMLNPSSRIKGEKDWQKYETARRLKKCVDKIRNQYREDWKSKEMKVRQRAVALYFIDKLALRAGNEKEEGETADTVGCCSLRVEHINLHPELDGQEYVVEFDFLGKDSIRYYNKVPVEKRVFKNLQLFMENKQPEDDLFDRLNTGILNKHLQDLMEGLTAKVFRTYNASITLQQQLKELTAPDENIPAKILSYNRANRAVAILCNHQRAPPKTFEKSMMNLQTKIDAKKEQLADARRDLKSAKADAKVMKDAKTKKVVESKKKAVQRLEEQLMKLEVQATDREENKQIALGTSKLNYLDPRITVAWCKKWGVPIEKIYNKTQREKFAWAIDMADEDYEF
Assay: ELISA, LogAUC grade
endpoint.name: binding result

CH556 (antibody, V domains shown, also called CH235.11) VH: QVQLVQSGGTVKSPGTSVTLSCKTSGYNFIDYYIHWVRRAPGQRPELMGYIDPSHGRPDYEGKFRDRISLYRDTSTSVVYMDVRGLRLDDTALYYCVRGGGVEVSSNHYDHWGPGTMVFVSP VL: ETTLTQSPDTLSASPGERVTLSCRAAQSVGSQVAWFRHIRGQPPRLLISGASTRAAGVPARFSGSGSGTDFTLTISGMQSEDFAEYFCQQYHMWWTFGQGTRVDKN | no binding
CH235 (antibody, V domains shown, also called CH235_4A) VH: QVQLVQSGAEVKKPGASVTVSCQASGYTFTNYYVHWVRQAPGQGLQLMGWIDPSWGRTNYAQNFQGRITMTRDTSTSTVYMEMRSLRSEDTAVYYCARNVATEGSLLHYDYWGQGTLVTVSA VL: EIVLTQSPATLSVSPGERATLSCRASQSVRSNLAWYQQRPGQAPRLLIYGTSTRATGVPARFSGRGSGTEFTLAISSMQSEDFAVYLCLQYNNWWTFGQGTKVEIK | no binding
CH235.13 (antibody, V domains shown) VH: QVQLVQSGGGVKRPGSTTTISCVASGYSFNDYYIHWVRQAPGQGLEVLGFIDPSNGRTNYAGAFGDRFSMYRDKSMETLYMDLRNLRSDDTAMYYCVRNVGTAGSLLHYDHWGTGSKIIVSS VL: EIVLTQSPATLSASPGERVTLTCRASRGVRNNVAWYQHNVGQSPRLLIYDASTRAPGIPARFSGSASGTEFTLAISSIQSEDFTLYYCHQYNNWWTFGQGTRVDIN | no binding
